# Tested on: T-47D breast
# assay_remarks: NCI-60 one-dose screen, 48 h
# condition_context: 10 µM unless noted
The panel holds about 83,000 compounds, 20% with a hit somewhere; the sample as a whole holds those more often. The source made the active and inactive calls. Rule for the calls: active = growth percent below 10; inactive = the rest.
Hi! Could you answer with just one of these? active, inactive

>>> group("O=C(O)c1ccc(-n2cc(CNc3ccc(F)cc3)c(-c3ccc(C(F)(F)F)cc3)n2)cc1")
"inactive"
>>> group("COc1cc(/C=C/C(=O)c2ccc(NC(=O)COc3cccc4cccnc34)cc2)cc(OC)c1OC")
"inactive"
>>> group("Oc1ccccc1/C=N/Nc1nc(N/N=C/c2ccccc2O)nc(N2CCOCC2)n1")
"inactive"
>>> group("COc1ccc([C@@H]2[C@@H](O)C(=O)N2c2cc(OC)c(OC)c(OC)c2)cc1Cl")
"inactive"
>>> group("COc1ccc(CN2C(=O)/C(=C/c3nc(CO)cs3)SC2=S)cc1")
"inactive"

Ask: In this assay, the call recorded for COc1ccc(/C=N\NC(=O)c2ccc3nc(-c4ccc(Br)cc4)[nH]c3c2)cc1 was what?
Result: inactive

Ask: Then COc1cc(NC2=C(Cl)C(=O)c3nc(C)ccc3C2=O)cc(OC)c1 ?
Result: active

Ask: Cool, now CCCCCc1ccc(S(=O)(=O)N(C(C)=O)c2cccc(-c3csc(N(CCN4CCN(C)CC4)C(C)=O)n3)c2)cc1
Result: inactive

Ask: And for CC(C)(C)CC(C)(C)n1nnnc1C(Nc1ccccc1)c1cc2cccc3ccc4cccc1c4c32 (stereo not given) ?
Result: inactive

Ask: Next entry: CCC(=O)Nc1ccc(-c2nc(-c3cccc(O)c3)c(-c3ccnc(Br)c3)[nH]2)cc1
Result: inactive

Ask: Entry COc1ccc2oc3c4[nH]c5ccccc5c4c4c(c3c2c1)C(=O)N(O)C4=O please
Result: inactive

Ask: Again, but for O=C1Nc2ccc(Cl)cc2/C1=C/c1ccc(OCc2ccc(F)cc2)cc1
Result: inactive

Ask: Another: O=C(NNc1nc2cc(F)cc(F)c2n2cccc12)c1ccncn1
Result: active

Ask: One more compound: COc1cc2c3c(n(CCCNCC4CC4)c(=O)c2cc1OC)-c1cc2c(cc1C3=O)OCO2
Result: inactive

Ask: // query: Cc1cnc2nc(NN)[nH]n12
Result: inactive
